target: Neuronal acetylcholine receptor subunit alpha-7 (Rattus norvegicus); assay: Inhibitory constant against [3H]methyllycaconitine binding towards Nicotinic acetylcholine receptor alpha-7 of rat brain hippocampus
experimentalEndpoint: Ki (nM)
Entry rule: numbers only, all in nM.

Before answering, review these 5 worked examples.
{"columns": ["molecule", "system", "Ki [nM]"],
 "data": [
  ["O=C(Nc1ccc(Sc2ccccc2)cc1)O[C@@H]1C2CCN(CC2)[C@@H]1Cc1cccnc1", "Neuronal acetylcholine receptor subunit alpha-7 (Rattus norvegicus)", 9],
  ["O=C(N[C@@H]1C2CCN(CC2)[C@@H]1Cc1cccnc1)c1ccsc1", "Neuronal acetylcholine receptor subunit alpha-7 (Rattus norvegicus)", 790],
  ["O=C(Nc1ccc(Br)cc1)O[C@@H]1C2CCN(CC2)[C@@H]1Cc1ccco1", "Neuronal acetylcholine receptor subunit alpha-7 (Rattus norvegicus)", 234],
  ["COc1cccc(NC(=O)N[C@@H]2C3CCN(CC3)[C@@H]2Cc2cccnc2)c1", "Neuronal acetylcholine receptor subunit alpha-7 (Rattus norvegicus)", 43],
  ["C/C(=C\\C(=O)N[C@@H]1C2CCN(CC2)[C@@H]1Cc1cccnc1)c1ccccc1", "Neuronal acetylcholine receptor subunit alpha-7 (Rattus norvegicus)", 87]
]}

Reported Ki of O=C(Nc1cccc(C(F)(F)F)c1)N[C@@H]1C2CCN(CC2)[C@@H]1Cc1cccnc1 : 91

The recorded Ki for entry O=S(=O)(N[C@@H]1C2CCN(CC2)[C@@H]1Cc1cccnc1)c1ccccc1 equals 418

// O=C(Nc1ccc(Br)cc1)O[C@@H]1C2CCN(CC2)[C@@H]1Cc1cnc2ccccc2c1 : Ki value = 10000

What the record says about O=C(Nc1ccc(F)cc1)O[C@@H]1C2CCN(CC2)[C@@H]1Cc1cccnc1 : Ki is 6

Please fill in: Ki reported for O=C(NC1CC1c1ccccc1)O[C@@H]1C2CCN(CC2)[C@@H]1Cc1cccnc1 (stereo partly drawn) = 103

Record summary for COc1ccc(NC(=O)N[C@@H]2C3CCN(CC3)[C@@H]2Cc2cccnc2)cc1 : reported Ki = 37

molecule O=C(Nc1ccc(-c2ccccc2)cc1)N[C@@H]1C2CCN(CC2)[C@@H]1Cc1cccnc1 , Ki observed: 424

###

target: Neuronal acetylcholine receptor subunit alpha-7 (Rattus norvegicus); assay: Inhibitory constant against [3H]methyllycaconitine binding towards Nicotinic acetylcholine receptor alpha-7 of rat brain hippocampus
pKi: −log10 of the molar value.
Entry flag: t if pKi reaches 7; f if it does not.

Illustrative cases are given below, each with its answer.
{"columns": ["substanceSmiles", "class"],
 "data": [
  ["O=C(Nc1ccc(Oc2ccccc2)cc1)O[C@@H]1C2CCN(CC2)[C@@H]1Cc1cccnc1", "t"],
  ["COc1ccncc1C[C@@H]1[C@H](OC(=O)Nc2ccc(Br)cc2)C2CCN1CC2", "t"],
  ["O=C(Nc1ccccc1)N[C@@H]1C2CCN(CC2)[C@@H]1Cc1cccnc1", "t"]
]}

Task: Determine whether this molecule has pKi no lower than 7: Cn1cc(C(=O)N[C@@H]2C3CCN(CC3)[C@@H]2Cc2cccnc2)c2ccccc21
Output: f

Task: Is reported pKi greater than or equal to 7 here: O=C(Nc1cccc(F)c1)N[C@@H]1C2CCN(CC2)[C@@H]1Cc1cccnc1
Output: t

###

molecular target: Neuronal acetylcholine receptor; alpha4/beta2 (Homo sapiens, UniProt P17787+P43681); assay: Binding affinity towards Nicotinic acetylcholine receptor alpha4-beta2; Not significant
Sequence (P17787 whole entry): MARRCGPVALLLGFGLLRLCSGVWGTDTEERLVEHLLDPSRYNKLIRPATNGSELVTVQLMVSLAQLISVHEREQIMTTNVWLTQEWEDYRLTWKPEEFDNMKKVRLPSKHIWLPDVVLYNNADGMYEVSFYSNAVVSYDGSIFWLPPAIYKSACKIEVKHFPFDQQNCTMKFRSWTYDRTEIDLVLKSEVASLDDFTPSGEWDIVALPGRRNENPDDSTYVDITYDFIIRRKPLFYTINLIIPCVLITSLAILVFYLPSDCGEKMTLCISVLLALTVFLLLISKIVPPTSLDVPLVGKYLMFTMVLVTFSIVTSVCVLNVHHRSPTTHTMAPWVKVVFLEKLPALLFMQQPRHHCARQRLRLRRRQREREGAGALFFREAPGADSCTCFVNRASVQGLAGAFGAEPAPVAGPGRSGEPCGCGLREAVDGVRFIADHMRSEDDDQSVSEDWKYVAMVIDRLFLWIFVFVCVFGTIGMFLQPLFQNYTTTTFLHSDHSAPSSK
Sequence (P43681 whole entry): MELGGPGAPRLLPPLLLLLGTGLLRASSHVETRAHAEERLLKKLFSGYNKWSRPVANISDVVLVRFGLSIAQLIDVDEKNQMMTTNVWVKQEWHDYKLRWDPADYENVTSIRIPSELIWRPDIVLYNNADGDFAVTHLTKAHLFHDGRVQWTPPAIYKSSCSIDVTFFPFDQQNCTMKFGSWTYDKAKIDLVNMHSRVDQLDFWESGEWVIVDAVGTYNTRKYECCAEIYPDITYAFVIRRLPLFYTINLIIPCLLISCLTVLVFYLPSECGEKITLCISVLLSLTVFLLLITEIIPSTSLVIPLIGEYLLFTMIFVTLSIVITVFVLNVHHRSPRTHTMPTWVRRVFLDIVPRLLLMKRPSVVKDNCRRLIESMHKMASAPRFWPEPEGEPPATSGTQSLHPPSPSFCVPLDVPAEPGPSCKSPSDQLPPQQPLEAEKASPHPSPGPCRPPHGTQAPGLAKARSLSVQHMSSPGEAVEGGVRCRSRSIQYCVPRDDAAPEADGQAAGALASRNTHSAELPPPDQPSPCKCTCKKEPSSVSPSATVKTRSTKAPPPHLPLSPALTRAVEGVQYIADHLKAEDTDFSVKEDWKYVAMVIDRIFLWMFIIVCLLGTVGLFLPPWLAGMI
Catalogue of Ki readings, one per entry.

Some solved cases for reference:
{"columns": ["compound", "Ki"],
 "data": [
  ["O=C(N[C@@H]1C2CCN(CC2)[C@@H]1Cc1cccnc1)c1ccsc1", "> 10 µM"],
  ["O=C(Nc1ccc(Br)cc1)OC1CN2CCC1CC2 (stereo not given)", "> 10 µM"],
  ["Cn1cccc1C(=O)N[C@@H]1C2CCN(CC2)[C@@H]1Cc1cccnc1", "> 10 µM"],
  ["O=C(Nc1ccc(-c2ccccc2)cc1)N[C@@H]1C2CCN(CC2)[C@@H]1Cc1cccnc1", "> 10 µM"]
]}

With those in mind, consider the next compound.
Notebook: NC(=O)Cc1ccc(S(=O)(=O)N[C@@H]2C3CCN(CC3)[C@@H]2Cc2cccnc2)cc1 , Ki read as > 10 µM

###

molecular target: Neuronal acetylcholine receptor subunit alpha-7 (Rattus norvegicus); experiment: Potency against rat nicotinic acetylcholine alpha-7 subunit expressed in Xenopus oocytes as current activation
experimentalEndpoint: pEC50
The read-out pEC50 is expressed as -log10 of concentration in moles per litre.

Data point: COc1ccc(NC(=O)O[C@@H]2C3CCN(CC3)[C@@H]2Cc2cccnc2)cc1 ; pEC50 = 6.52

###

target: Neuronal acetylcholine receptor; alpha4/beta2 (Homo sapiens, UniProt P17787+P43681); experiment: Binding affinity towards Nicotinic acetylcholine receptor alpha4-beta2; Not significant
pKi: −log10 of the molar value.
experimentalEndpoint: pKi

See these solved cases before continuing.
{"columns": ["compound", "pKi"],
 "data": [
  ["CC(C)Oc1cncc(C[C@@H]2[C@H](OC(=O)Nc3ccc(Br)cc3)C3CCN2CC3)c1", "< 5.00"],
  ["O=C(N[C@@H]1C2CCN(CC2)[C@@H]1Cc1cccnc1)c1cccc(Br)c1", "< 5.00"],
  ["O=C(NCc1ccc(Br)cc1)N[C@@H]1C2CCN(CC2)[C@@H]1Cc1cccnc1", "< 5.00"],
  ["O=C(Nc1ccccc1)OC1CN2CCC1CC2 (stereo not given)", "< 5.00"]
]}

Record COc1ccc(NC(=O)N[C@@H]2C3CCN(CC3)[C@@H]2Cc2cccnc2)cc1 . Reported pKi: < 5.00

Input CSc1ccc(NC(=O)N[C@@H]2C3CCN(CC3)[C@@H]2Cc2cccnc2)cc1 . Output pKi: < 5.00

Record O=C(Nc1ccc(Br)cc1)O[C@@H]1C2CCN(CC2)[C@@H]1Cc1cnccc1Oc1ccccc1 , field pKi: < 5.00

The recorded pKi for O=S(=O)(N[C@@H]1C2CCN(CC2)[C@@H]1Cc1cccnc1)c1ccccc1 is < 5.00

Recorded pKi (compound O=C(NCc1ccccc1)O[C@@H]1C2CCN(CC2)[C@@H]1Cc1cccnc1 ): < 5.00

Field pKi (entry CN(C)c1ccc(C[C@@H]2[C@H](OC(=O)Nc3ccc(Br)cc3)C3CCN2CC3)cc1 ) reads < 5.00

###

target: Neuronal acetylcholine receptor subunit alpha-7 (Rattus norvegicus); test: Inhibitory constant against [3H]methyllycaconitine binding towards Nicotinic acetylcholine receptor alpha-7 of rat brain hippocampus
log10 of Ki values for the molecules below.
Response schema: value (number) is log10 of Ki in units of nM.

Looking up O=C(N[C@@H]1C2CCN(CC2)[C@@H]1Cc1cccnc1)c1csc(Br)c1 , I see its log10 of Ki listed as -0.40

Sample O=C(NCc1ccc(Br)cc1)N[C@@H]1C2CCN(CC2)[C@@H]1Cc1cccnc1 ; log10 of Ki observed: 2.44

Sample O=C(Nc1ccc(Br)cc1)N[C@@H]1C2CCN(CC2)[C@@H]1Cc1cccnc1 ; log10 of Ki observed: 0.95

log10 of Ki recorded for this molecule, O=C(N[C@@H]1C2CCN(CC2)[C@@H]1Cc1cccnc1)c1c[nH]c2ccccc12 , is 0.90

Summary for this molecule, COc1ccc(S(=O)(=O)N[C@@H]2C3CCN(CC3)[C@@H]2Cc2cccnc2)cc1 : log10 of Ki is 3.95

Recorded result, O=C(N[C@@H]1C2CCN(CC2)[C@@H]1Cc1cccnc1)c1ccc2ccccc2c1O , log10 of Ki: 0.00

Memo: O=C(NCc1ccccc1)O[C@@H]1C2CCN(CC2)[C@@H]1Cc1cccnc1 , reported log10 of Ki: 2.83

Record summary for O=C(Nc1ccc(Br)cc1)O[C@@H]1C2CCN(CC2)[C@@H]1Cn1ccnc1 : reported log10 of Ki = 1.00

Sure, the documented log10 of Ki for O=C(Nc1ccc(Sc2ccccc2)cc1)OC1CN2CCC1CC2 (stereo not given) is 1.72

###

target: Neuronal acetylcholine receptor subunit alpha-7 (Rattus norvegicus, UniProt Q05941); assay: Inhibitory constant against [3H]methyllycaconitine binding towards Nicotinic acetylcholine receptor alpha-7 of rat brain hippocampus; assay type: tissue-based
Sequence (Q05941 whole entry): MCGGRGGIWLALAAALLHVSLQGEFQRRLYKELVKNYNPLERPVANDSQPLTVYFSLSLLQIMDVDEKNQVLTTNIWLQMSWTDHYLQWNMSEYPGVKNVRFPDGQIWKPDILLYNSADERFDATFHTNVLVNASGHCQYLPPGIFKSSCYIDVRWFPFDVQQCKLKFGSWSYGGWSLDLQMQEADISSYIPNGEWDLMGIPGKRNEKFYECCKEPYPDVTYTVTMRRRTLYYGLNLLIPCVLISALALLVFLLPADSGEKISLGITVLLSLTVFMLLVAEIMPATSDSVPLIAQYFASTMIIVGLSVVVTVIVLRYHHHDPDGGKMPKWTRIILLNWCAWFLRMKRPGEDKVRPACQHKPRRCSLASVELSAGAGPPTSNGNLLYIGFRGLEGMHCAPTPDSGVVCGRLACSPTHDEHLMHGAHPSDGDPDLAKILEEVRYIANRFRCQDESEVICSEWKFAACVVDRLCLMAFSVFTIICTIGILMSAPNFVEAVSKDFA
Class definitions on Ki: lower band = under 40 nM, central band = from 40 nM up to 300 nM, upper band = 300 nM and over

Before answering, review these 3 worked examples.
{"columns": ["substanceSmiles", "class"],
 "data": [
  ["COc1ccc(C[C@@H]2[C@H](OC(=O)Nc3ccc(Br)cc3)C3CCN2CC3)cc1", "upper band"],
  ["O=C(Nc1ccc(F)cc1)N[C@@H]1C2CCN(CC2)[C@@H]1Cc1cccnc1", "central band"],
  ["O=S(=O)(Cc1ccccc1)N[C@@H]1C2CCN(CC2)[C@@H]1Cc1cccnc1", "upper band"]
]}

Task: Classify this compound: CSc1ccc(NC(=O)N[C@@H]2C3CCN(CC3)[C@@H]2Cc2cccnc2)cc1
Output: lower band

Task: Sort into band: O=C(Nc1ccc(Oc2ccccc2)cc1)N[C@@H]1C2CCN(CC2)[C@@H]1Cc1cccnc1
Output: lower band

Task: Input COc1ccccc1NC(=O)N[C@@H]1C2CCN(CC2)[C@@H]1Cc1cccnc1 ; output its category
Output: lower band

Task: Bin this entry: O=C(Nc1ccc(Cl)c(Cl)c1)N[C@@H]1C2CCN(CC2)[C@@H]1Cc1cccnc1
Output: lower band

Task: Bin? O=C(N[C@@H]1C2CCN(CC2)[C@@H]1Cc1cccnc1)c1cccc(Br)c1
Output: central band

Task: Consider COc1cncc(C[C@@H]2[C@H](OC(=O)Nc3ccc(Br)cc3)C3CCN2CC3)c1 . To which Ki class does it belong?
Output: central band

Task: Lab note: which band did COc1ccc(NC(=O)O[C@@H]2C3CCN(CC3)[C@@H]2Cc2cccnc2)cc1 land in?
Output: lower band

Task: Each compound maps to one class by Ki. Which class for O=C(Nc1cccc(Br)c1)N[C@@H]1C2CCN(CC2)[C@@H]1Cc1cccnc1 ?
Output: central band

Task: Class label required: COc1ccc(NC(=O)N[C@@H]2C3CCN(CC3)[C@@H]2Cc2cccnc2)c(OC)c1
Output: lower band

Task: Which class holds O=C(Nc1ccc(Br)cc1)O[C@@H]1C2CCN(CC2)[C@@H]1Cc1cc2ccccc2o1 ?
Output: upper band

Task: Band assignment needed for O=C(Nc1ccc(Br)cc1)O[C@@H]1C2CCN(CC2)[C@@H]1Cc1ccc(F)cc1 please.
Output: central band

Task: Textbook exercise: identify the category of the compound given here, O=C(Nc1ccc(Br)cc1)O[C@@H]1C2CCN(CC2)[C@@H]1Cc1ccccc1 , according to its measured value.
Output: upper band

Task: State the band of Cn1cccc1C(=O)N[C@@H]1C2CCN(CC2)[C@@H]1Cc1cccnc1
Output: central band

Task: Hey, which category is CN(C)c1ccc(NC(=O)N[C@@H]2C3CCN(CC3)[C@@H]2Cc2cccnc2)cc1 in, do you know?
Output: lower band

Task: Band for the recorded Ki of N#Cc1cccc(NC(=O)N[C@@H]2C3CCN(CC3)[C@@H]2Cc2cccnc2)c1 ?
Output: central band

Task: Pick a category. Item: CC(C)Oc1cncc(C[C@@H]2[C@H](OC(=O)Nc3ccc(Br)cc3)C3CCN2CC3)c1
Output: upper band

Task: Exercise: read the entry O=C(Nc1ccc(-c2ccccc2)cc1)O[C@@H]1C2CCN(CC2)[C@@H]1Cc1cccnc1 and state which class it falls under.
Output: upper band

Task: Into which category would you place C/C(=C\c1ccccc1)C(=O)N[C@@H]1C2CCN(CC2)[C@@H]1Cc1cccnc1 ?
Output: lower band

Task: Where would NC(=O)Cc1ccc(S(=O)(=O)N[C@@H]2C3CCN(CC3)[C@@H]2Cc2cccnc2)cc1 land among the classes by reported Ki?
Output: central band
